These data points were gathered from ChEMBL document CHEMBL5137024.

Tested on: DU-145
Experiment: Antiproliferative activity against human DU-145 cells assessed as reduction in cell viability incubated for 48 hrs by MTT assay
Assay type: functional, cell-based
Conditions: DU-145, 48 h
endpoint-name: IC50 (nM)
Numbers only here, please. The scale is nM.

Would you mind telling me what IC50 value was observed for `CN(c1ccc2c(ccn2C)c1)c1cc(=O)oc2ccccc12` ? 74

----------
Test: Cytotoxicity against human GES1 cells assessed as reduction in cell viability incubated for 48 hrs by MTT assay
Type: toxicity, cell-based
endpoint-name: IC50 at 48 h (µM)
Numbers only here, please. The scale is µM.

Would you mind telling me what IC50 at 48 h value was observed for `CN(c1ccc2c(ccn2C)c1)c1cc(=O)oc2ccccc12` ? 3.17

----------
Test system: MGC-803
Test: Antiproliferative activity against human MGC-803 cells assessed as reduction in cell viability incubated for 48 hrs by MTT assay
Type: functional, cell-based
Conditions: mgc-803
endpoint-name: pIC50
In plain terms, pIC50 is the concentration in mol/L turned into minus its base-10 logarithm.

Would you mind telling me what pIC50 value was observed for `CN(c1ccc2c(ccn2C)c1)c1cc(=O)oc2ccccc12` ? 7.94

----------
Tested on: A549
Assay: Antiproliferative activity against human A549 cells assessed as reduction in cell viability incubated for 48 hrs by MTT assay
Assay type: functional, cell-based
Conditions: A549, 48 h
endpoint-name: pIC50
In plain terms, pIC50 is the concentration in mol/L turned into minus its base-10 logarithm.

Would you mind telling me what pIC50 value was observed for `CN(c1ccc2c(ccn2C)c1)c1cc(=O)oc2ccccc12` ? 7.23

----------
Tested on: TE-1
Test: Antiproliferative activity against human TE-1 cells assessed as reduction in cell viability incubated for 48 hrs by MTT assay
Format: functional, cell-based
Conditions: TE-1, 48 h
endpoint-name: pIC50
In plain terms, pIC50 is the concentration in mol/L turned into minus its base-10 logarithm.

GET /values?readout=pIC50&system=TE-1&item= `CN(c1ccc2c(ccn2C)c1)c1cc(=O)oc2ccccc12` 6.31
